Hey, just so you know, these numbers are from patent US7220822.

SUBJECT_OF_TEST: CD80-Ig (extracellular domain of CD80 fused with the constant region of mouse IgG1 heavy chain) (mouse)
TEST_METHOD_NOTES: SPR competitive kinetics, peptide 1 × 10^5 nM with 3.2 µM CD28-Ig (competitor) over captured CD80-Ig
QUANTITY_MEASURED: pKd
The meaning of pKd here: minus log10 of the concentration in molar units.

Incoming: Reported pKd for Ac-KIEFMYPPPYLDNERSNGTI-NH2 [EL-CD28 (end-blocked L CD28 peptide mimetic)] : what is it?
Outgoing: 5.60
